assay: NCI Yeast Anticancer Drug Screen. Data for the bub3 strain (AID 167); details: S. cerevisiae bub3 mutant strain, at 50.0 µM (retest, dose inferred, filed as 5.0)
Compounds without any hit were thinned out: in the full panel of roughly 79,000, 15% have a hit. Active and inactive are the calls of the source. Rule as the data show it: active = growth inhibition above about 70%; inactive = the rest.
Use one of these outcomes when replying: 1.0 (active), 0.0 (inactive)

Prompt line: What did the test return for O=C1C=C(N2CC2)C(=O)C=C1N1CC1 ?
Response line: 0.0

Prompt line: Please let me know the test result on file for O=P(c1cccc(C(F)(F)F)c1)(c1cccc(C(F)(F)F)c1)c1cccc(C(F)(F)F)c1.O=P(c1cccc(C(F)(F)F)c1)(c1cccc(C(F)(F)F)c1)c1cccc(C(F)(F)F)c1.[Cl][Sn]([Cl])([Cl])[Cl] .
Response line: 1.0

Prompt line: What did the test return for CC(C)C1(NC(=O)C2CC3c4cccc5[nH]cc(c45)CC3N(C)C2)OC2(O)C3CCCN3C(=O)C(Cc3ccccc3)N2C1=O (stereo not given) ?
Response line: 1.0

Prompt line: What did this assay record as the result for O=C(O)c1cc(Cc2ccc(O)c(C(=O)O)c2)ccc1O (tested in a mixture with another compound) ?
Response line: 0.0

Prompt line: Name the outcome recorded for CCCC(C)(COC(N)=O)COC(=O)NC1CC1 (stereo not given) in the assay.
Response line: 0.0

Prompt line: For COC(=O)C1ON(c2ccccc2)C2c3ccccc3-c3ccccc3C12 (stereo not given) , which call appears in the assay record?
Response line: 1.0

Prompt line: Please state the recorded outcome for this compound: C/C=C(\C)C(=O)OC1CC(C)(C)CC2C3=CCC4C5(C)CCC(=O)C(C)(C)C5CCC4(C)C3(C)CCC12C(=O)O (stereo not given) (tested in a mixture with another compound)
Response line: 1.0

Prompt line: In this assay, the call recorded for O=[N+]([O-])c1cc(Cl)c(Cl)cc1[N+](=O)[O-] was what?
Response line: 1.0

Prompt line: Recorded test call requested for N#CC(C#N)=Cc1c(O)ccc2ccccc12
Response line: 0.0

Prompt line: // return assay outcome for CN(CCCl)Cc1ccc(OCc2ccccc2)c(OCc2ccccc2)c1
Response line: 1.0

Prompt line: Tell me the recorded outcome of this test for CCOC(=O)c1ccc(N=Cc2ccc(N(CCCl)CCCl)cc2C)cc1 .
Response line: 0.0

Prompt line: Hey, what did the test say about Cc1ccc(C(=O)C2C(c3ccccc3)N2C2CCCCC2)cc1 (stereo not given) ?
Response line: 1.0

Prompt line: Fill in: this test's call for Nc1ccccc1C(=O)c1ccccc1 is ___
Response line: 0.0

Prompt line: What is the recorded call for this compound in the test? OC(CN(CCCl)CCCl)C(O)C(O)C(O)CN(CCCl)CCCl (stereo not given)
Response line: 0.0

Prompt line: // param item: C/C(=N/NC(N)=S)c1ccc(Cl)cc1 ; yields the recorded call
Response line: 1.0

* * *

experiment: NCI Yeast Anticancer Drug Screen. Data for the mlh1 rad18 strain (AID 175); conditions: S. cerevisiae mlh1 rad18 strain growth inhibition; at 50.0 µM; stronger effect = higher value
About 79,000 compounds went through this panel and 15% of them were active in at least one assay; those are over-represented in the sample as a whole.
Note to self: values exactly at 20% are class 1. So growth inhibition at or above 20% is class 1, below is class 0.

Prompt line: Textbook exercise: given the entry CC(Cl)CC(=O)OCC1CCCN2CCCCC12 (stereo not given) , state whether its growth inhibition is greater than or equal to 20%.
Response line: class 1

Prompt line: State whether the measured growth inhibition reaches 20%, counting equality as reaching it, for CCOP(=O)(Oc1ccc([N+](=O)[O-])cc1)c1cccc(Br)c1 (stereo not given)
Response line: class 1

Prompt line: Quick check, growth inhibition >= 20%? COc1cc([C@@H]2c3cc(O)c(OC)cc3C[C@H]3C(=O)OC[C@@H]23)ccc1O
Response line: class 0

Prompt line: Exam item: decide whether the reported growth inhibition for CCN(CC)C(=O)N1CN(c2ccccc2)C2(CCN(CCCC3(c4ccc(F)cc4)OCCO3)CC2)C1=O is at least 20%.
Response line: class 1

Prompt line: hey, is growth inhibition for this one >= 20%? [CH3][Sn]1([CH3])[c]2ccccc2Oc2cccc[c]21
Response line: class 0

Prompt line: Evaluate O=P(O)(O)CCCCP(=O)(O)O.[Zn+2] : growth inhibition at minimum 20%?
Response line: class 0

Prompt line: Please tell me: is the molecule Oc1c(Cl)c(Cl)cc(Cl)c1Cl at or over 20% in terms of growth inhibition?
Response line: class 1

Prompt line: Quick check: does O.[Co].[NH2-].[NH2-].[NH2-].[NH2-].[NH2-] have growth inhibition greater than or equal to 20%?
Response line: class 1

Prompt line: hey, is growth inhibition for this one >= 20%? ClCc1ccncc1
Response line: class 1

Prompt line: Would you say c1cc[c]([Ge]([c]2ccccc2)[c]2ccccc2)cc1.c1cc[c]([Ge]([c]2ccccc2)[c]2ccccc2)cc1 shows growth inhibition at minimum 20%?
Response line: class 0

Prompt line: Reported growth inhibition reaches at least 20% for NC(Cc1ccc(N(CCCl)Cc2ccccc2)cc1)C(=O)O (stereo not given) ?
Response line: class 0

Prompt line: I'd appreciate it if you could say whether CSCCC(N)P(C)(=O)O (stereo not given) has growth inhibition at least equal to 20%.
Response line: class 0

Prompt line: Has CCOC(=O)c1ccc(N=Cc2ccc(N(CCCl)CCCl)cc2C)cc1 a recorded growth inhibition greater than or equal to 20%?
Response line: class 1

Prompt line: API: above_or_equal(metric=growth inhibition, cutoff=20%) for item O=C(C1CO1)C(Cl)(Cl)Cl (stereo not given)
Response line: class 0

Prompt line: Entry CC(C)CCCCCc1ccc(OCCOc2ccc(C(=O)Nc3ccc(S(=O)(=O)F)cc3[N+](=O)[O-])cc2)cc1 : is its growth inhibition no less than 20%?
Response line: class 0

Prompt line: Is growth inhibition at least 20%? Consider O=C(NC(Cc1ccccc1)C(=O)N(CCCl)CCCl)c1ccccc1 (stereo not given)
Response line: class 1

Prompt line: Could you tell me if the measured growth inhibition of CCN(CC)CCc1ccccn1 reaches 20% or more?
Response line: class 0

Prompt line: Reported growth inhibition at or above 20%? CO[C@H]1Nc2c(ccc(C)c2O)C(=O)N2C=C(/C=C/C(N)=O)C[C@@H]12
Response line: class 1

Prompt line: Could you please find out whether NC(=O)Cc1nn[nH]n1 has growth inhibition that meets 20% or exceeds it?
Response line: class 0

* * *

experiment: NCI Yeast Anticancer Drug Screen. Data for the mec2-1 strain (AID 157); conditions: S. cerevisiae mec2-1 strain, at 50.0 µM, stronger effect = higher value
This is part of a sample that, as a whole, favours compounds with a hit. Of some 79,000 tested, about 15% had one in any assay.
REPORTED METRIC: growth inhibition (%)
Express your answer in %, writing the number without its unit.

Prompt line: Kindly indicate its recorded growth inhibition. Item: O=S(=O)(CCBr)CCBr
Response line: 84.2

Prompt line: Report growth inhibition, nothing else, for this compound: CCN1CCC(O)(c2ccccc2)C(C(=O)c2ccccc2)C1 (stereo not drawn)
Response line: -17.1

Prompt line: Entry CCNCCC1(CC)C(=O)NC(=O)NC1=O needs its growth inhibition filled in; supply it.
Response line: -16.8

Prompt line: Fill in growth inhibition for record Cc1c(=O)n(O)c2ccccc2[n+]1[O-]
Response line: 0.75

Prompt line: Give the value of growth inhibition reported for the following: c1ccc2c(c1)CN1Cc3ccccc3C2C1
Response line: -12.3

Prompt line: Note growth inhibition for the compound shown: N=C(N)SCc1ccc(Cl)c(Cl)c1 (tested in a mixture with another compound)
Response line: 10.8

Prompt line: Return value of growth inhibition for input CCCCCCCCCCCCCC(=O)[O][Hg][c]1ccccc1 , no commentary.
Response line: 99.6

Prompt line: State its growth inhibition for this compound: O=C(O)C(=O)O.[Ru].c1cnc2c(c1)ccc1cccnc12.c1cnc2c(c1)ccc1cccnc12
Response line: -10.9

Prompt line: Please supply the value of reported growth inhibition for the item COc1cc(C(CC(C)=O)c2cc3c(cc2OC(C)=O)OCO3)cc(OC)c1OC (stereo not drawn) (tested in a mixture with another compound)
Response line: 8.6

Prompt line: Supply growth inhibition value. Item: CN(C)c1ccc(C(=O)CCCN2CCC3(CC2)C(=O)NCN3c2ccccc2)cc1
Response line: 8.95

Prompt line: Tell me growth inhibition reported for COc1cc(C2c3cc4c(cc3OC(NNS(=O)(=O)c3ccc(C)cc3)C2C)OCO4)cc(OC)c1O (stereo not drawn)
Response line: -7.8

Prompt line: Answer with the recorded growth inhibition of O=[N+]([O-])c1cccc2c([N+](=O)[O-])cccc12 only.
Response line: 5.2

Prompt line: Give the reported growth inhibition for this compound. N#CC(Cl)(Cl)CCl
Response line: 13.2

* * *

test: NCI Yeast Anticancer Drug Screen. Data for the sgs1 mgt1 strain (AID 161);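 also: 0% = growth of cultures given vehicle only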; conditions: S. cerevisiae sgs1 mgt1 strain, at 5.0 µM (retest, dose inferred, filed as 0.5), stronger effect = higher value
This is part of a sample that, as a whole, favours compounds with a hit. Of some 79,000 tested, about 15% had one in any assay.
REPORTED METRIC: growth inhibition (%)
Give your result in % as a bare value.

Prompt line: Check the records and state growth inhibition for C[C@]12C/C(=C/O)C(=O)C(O)=C1CC[C@@H]1C2CC[C@@]2(C)C1CC[C@@H]2O (some centres undefined)
Response line: 4

Prompt line: For the molecule N#CCC[CH2][Sn]([Br])([Br])[c]1ccccc1 , give its reported growth inhibition.
Response line: 49

Prompt line: Give growth inhibition for the following molecule: NNc1ccccc1
Response line: 3

Prompt line: Look up growth inhibition of CCOc1ccc(CCNC)c2c1ccc1ccc(OC)c(O)c12 and report it.
Response line: -3
